Where do the numbers come from? From ChEMBL document CHEMBL5291721.

What follows is a collection of AC50 values obtained with Adenosine receptor A3 (Homo sapiens).
Sequence (P0DMS8 whole entry): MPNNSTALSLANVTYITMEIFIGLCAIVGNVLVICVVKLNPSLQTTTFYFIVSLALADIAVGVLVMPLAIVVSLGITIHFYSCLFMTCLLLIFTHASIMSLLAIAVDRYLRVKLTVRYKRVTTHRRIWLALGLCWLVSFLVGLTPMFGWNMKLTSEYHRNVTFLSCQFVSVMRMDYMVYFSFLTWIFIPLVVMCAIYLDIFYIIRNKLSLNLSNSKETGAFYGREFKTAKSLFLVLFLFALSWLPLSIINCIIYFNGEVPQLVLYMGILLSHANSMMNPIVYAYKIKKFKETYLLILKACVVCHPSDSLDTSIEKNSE

>>> recorded_measurement("CC(C)CC(N(C)C)C1(c2ccc(Cl)cc2)CCC1 (centres undefined)")
"> 30 µM"
>>> recorded_measurement("CC(=O)S[C@@H]1CC2=CC(=O)CC[C@]2(C)[C@H]2CC[C@@]3(C)[C@@H](CC[C@@]34CCC(=O)O4)[C@H]12")
"> 30 µM"
>>> recorded_measurement("Cc1cc(CC(=O)O)n(C)c1C(=O)c1ccc(Cl)cc1 [ZOMEPIRAC]")
"> 30 µM"
>>> recorded_measurement("CCOc1cc(CC(=O)N[C@@H](CC(C)C)c2ccccc2N2CCCCC2)ccc1C(=O)O [REPAGLINIDE]")
"22 µM"
>>> recorded_measurement("COc1cc2c(Nc3ccc(Br)cc3F)ncnc2cc1OCC1CCN(C)CC1")
"23 µM"

Query: Find the measured AC50: item OCCN1CCN(CC/C=C2/c3ccccc3Sc3ccc(Cl)cc32)CC1 , target or system Adenosine receptor A3 (Homo sapiens). Note: assay procedure not described here.
Result: > 10 µM

Query: Find the measured AC50: item Cc1ccc(NC(=O)C2(c3ccc4c(c3)OC(F)(F)O4)CC2)nc1-c1cccc(C(=O)O)c1 , target or system Adenosine receptor A3 (Homo sapiens). Note: assay procedure not described here.
Result: 15 µM

Query: Find the measured AC50: item CNC(=O)c1cc(Oc2ccc(NC(=O)Nc3ccc(Cl)c(C(F)(F)F)c3)c(F)c2)ccn1 , target or system Adenosine receptor A3 (Homo sapiens). Note: assay procedure not described here.
Result: 2.51 µM

Query: Find the measured AC50: item CN1c2ccccc2C(NCCCCCCC(=O)O)c2ccc(Cl)cc2S1(=O)=O (centres undefined) , target or system Adenosine receptor A3 (Homo sapiens). Note: assay procedure not described here.
Result: > 30 µM

====

System: Progesterone receptor (Homo sapiens); note: assay procedure not described here
Sequence (P06401 whole entry): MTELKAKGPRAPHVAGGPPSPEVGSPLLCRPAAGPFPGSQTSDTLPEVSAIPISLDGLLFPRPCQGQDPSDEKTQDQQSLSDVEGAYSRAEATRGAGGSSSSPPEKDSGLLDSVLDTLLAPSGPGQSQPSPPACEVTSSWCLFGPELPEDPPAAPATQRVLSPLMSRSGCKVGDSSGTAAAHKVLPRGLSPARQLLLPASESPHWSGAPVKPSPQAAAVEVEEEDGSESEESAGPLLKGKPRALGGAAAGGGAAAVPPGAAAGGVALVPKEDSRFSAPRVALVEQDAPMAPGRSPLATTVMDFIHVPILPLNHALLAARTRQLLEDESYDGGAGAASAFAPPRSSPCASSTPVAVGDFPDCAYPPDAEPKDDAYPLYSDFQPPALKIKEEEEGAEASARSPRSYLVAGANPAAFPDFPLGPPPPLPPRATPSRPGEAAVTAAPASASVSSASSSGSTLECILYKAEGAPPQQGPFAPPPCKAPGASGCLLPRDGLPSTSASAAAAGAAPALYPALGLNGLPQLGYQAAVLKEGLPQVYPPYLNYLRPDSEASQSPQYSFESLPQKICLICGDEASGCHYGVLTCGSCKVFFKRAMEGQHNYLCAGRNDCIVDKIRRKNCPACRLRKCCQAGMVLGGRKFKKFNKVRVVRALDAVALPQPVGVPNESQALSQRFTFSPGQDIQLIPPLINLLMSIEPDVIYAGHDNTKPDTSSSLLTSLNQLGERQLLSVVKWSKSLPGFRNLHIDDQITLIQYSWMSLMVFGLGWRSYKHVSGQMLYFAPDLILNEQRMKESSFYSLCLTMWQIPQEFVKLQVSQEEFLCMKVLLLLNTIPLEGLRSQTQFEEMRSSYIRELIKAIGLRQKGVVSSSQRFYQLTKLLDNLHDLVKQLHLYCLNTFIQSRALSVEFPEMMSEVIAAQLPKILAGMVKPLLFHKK
Type: functional
# key: entry, value: AC50

These solved cases illustrate the format of a correct answer.
>>> recorded_measurement("CC1(C)C(C=C(Cl)Cl)C1C(=O)OCc1cccc(Oc2ccccc2)c1 (stereo not given)")
"> 30 µM"
>>> recorded_measurement("CC(C)=CCOc1ccc(/C=C/C(=O)c2ccc(OCC=C(C)C)cc2OCC(=O)O)cc1")
"> 30 µM"
>>> recorded_measurement("NS(=O)(=O)c1cc(C2(O)NC(=O)c3ccccc32)ccc1Cl (stereo not given)")
"> 10 µM"
>>> recorded_measurement("CCCN(CCC)CCc1cccc2c1CC(=O)N2")
"> 30 µM"
>>> recorded_measurement("CC(=O)O[C@H]1C[C@@H]2CC[C@@H]3[C@H](CC[C@@]4(C)[C@H]3C[C@H]([N+]3(C)CCCCC3)[C@@H]4OC(C)=O)[C@@]2(C)C[C@@H]1[N+]1(C)CCCCC1")
"> 10 µM"

Query: Field request: AC50 | item: CC(C)OC(=O)C(C(=O)OC(C)C)=C1SC=CS1 [MALOTILATE]
Result: > 30 µM

Query: Field request: AC50 | item: C=CC1=C(C(=O)O)N2C(=O)[C@@H](NC(=O)/C(=N\OCC(=O)O)c3csc(N)n3)[C@H]2SC1
Result: > 30 µM

Query: Field request: AC50 | item: Nc1nc(O)c2ncn(COC(CO)CO)c2n1
Result: > 30 µM

Query: Field request: AC50 | item: O=C(O)c1ccccc1OP(=O)(O)O
Result: > 30 µM
